assay_target: Leukotriene A-4 hydrolase (Homo sapiens)
Sequence (P09960 whole entry): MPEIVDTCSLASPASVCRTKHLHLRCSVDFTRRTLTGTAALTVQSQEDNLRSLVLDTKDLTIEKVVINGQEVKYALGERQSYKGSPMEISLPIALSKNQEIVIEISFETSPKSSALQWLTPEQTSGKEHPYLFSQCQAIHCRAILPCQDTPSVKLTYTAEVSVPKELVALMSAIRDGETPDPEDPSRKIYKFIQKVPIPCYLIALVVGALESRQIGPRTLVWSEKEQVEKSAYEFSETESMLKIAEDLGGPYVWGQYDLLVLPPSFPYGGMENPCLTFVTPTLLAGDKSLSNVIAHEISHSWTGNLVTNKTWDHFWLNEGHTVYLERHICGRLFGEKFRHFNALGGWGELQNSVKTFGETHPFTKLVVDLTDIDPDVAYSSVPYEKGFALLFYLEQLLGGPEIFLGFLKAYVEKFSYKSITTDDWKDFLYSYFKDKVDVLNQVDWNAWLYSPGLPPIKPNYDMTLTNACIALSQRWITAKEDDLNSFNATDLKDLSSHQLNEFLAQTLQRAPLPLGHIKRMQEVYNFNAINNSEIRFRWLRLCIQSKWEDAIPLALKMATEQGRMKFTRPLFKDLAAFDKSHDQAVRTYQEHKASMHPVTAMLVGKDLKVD
protocol_notes: Inhibitory activity against LTA 4 hydrolase in epoxide hydrolase assay
reported_property: Ki (µM)
Numeric answer only, unit µM assumed.

(Q) What measured Ki goes with `C[C@H](NC(=O)[C@@H](CC(=O)NO)Cc1ccccc1)C(=O)O` ?
(A) 0.018

###

assay_target: Leukotriene A-4 hydrolase (Homo sapiens)
protocol_notes: Inhibitory activity against recombinant human Leukotriene A4 hydrolase
IC50: recorded values
Numeric answer only, unit µM assumed.

(Q) What measured IC50 goes with `O=C(C[C@@H](Cc1ccccc1)C(=O)N1CCC[C@@H]1C(=O)O)NO` ?
(A) 20

(Q) What measured IC50 goes with `C[C@H](NC(=O)[C@@H](CC(=O)NO)Cc1ccccc1)C(=O)O` ?
(A) 0.005

(Q) What measured IC50 goes with `C[C@H](CS)C(=O)N1CCC[C@H]1C(=O)O` ?
(A) 10

###

protocol_notes: Inhibitory activity against aminopeptidase
IC50: recorded values

Known results for molecules:
C[C@H](NC(=O)C(CS)Cc1ccccc1)C(=O)O (stereo not given in full) ... > 10000 nM
CSCC[C@@H](NC(=O)[C@@H](CC(=O)NO)Cc1ccccc1)C(=O)O ... 2 nM
C[C@H](NC(=O)[C@@H](CC(=O)NO)CC1CCCCC1)C(=O)O ... 10 nM
O=C(C[C@@H](Cc1ccccc1)C(=O)N1CCCC[C@@H]1C(=O)O)NO ... 2300 nM

Here is another molecule to look at.
(Q) What measured IC50 goes with `O=C(C[C@@H](Cc1ccccc1)C(=O)N[C@@H](Cc1c[nH]c2ccccc12)C(=O)O)NO` ?
(A) 5 nM
